System: Klebsiella aerogenes
Assay: Minimum inhibitory concentration against Klebsiella aerogenes X5L (inoculum, 10e4 cfu per spot)
Type: functional
Property label: MIC (µg/mL)

[[record]]
compound = "Cn1nnnc1SCC1=C(C(=O)OC(c2ccccc2)c2ccccc2)N2C(=O)[C@@H](Nc3nc4cc(O)ccc4[nH]3)C2SC1 (some centres not stated)"
value_measured = 64

[[record]]
compound = "CC(=O)OCC1=C(C(=O)OC(C)(C)C)N2C(=O)[C@@H](Nc3nc4ccccc4n3C)C2SC1 (some centres not stated)"
value_measured = 256

[[record]]
compound = "CC(=O)OCC1=C(C(=O)OC(c2ccccc2)c2ccccc2)N2C(=O)[C@@H](Nc3nc4cc(CO)ccc4[nH]3)C2SC1 (some centres not stated)"
value_measured = 128

[[record]]
compound = "CC(=O)OCC1=C(C(=O)OC(c2ccccc2)c2ccccc2)N2C(=O)[C@@H](Nc3nc4cc(O)ccc4[nH]3)C2SC1 (some centres not stated)"
value_measured = 64

[[record]]
compound = "CC(=O)OCC1=C(C(=O)OC(c2ccccc2)c2ccccc2)N2C(=O)[C@@H](Nc3nc4cc(F)ccc4[nH]3)C2SC1 (some centres not stated)"
value_measured = 256


(A) CC(=O)OCC1=C(C(=O)OC(c2ccccc2)c2ccccc2)N2C(=O)[C@@H](Nc3nc4cc(C)ccc4[nH]3)C2SC1 (some centres not stated)
(B) CC1(C)S[C@@H]2[C@H](/N=C/N3CCCCCC3)C(=O)N2[C@H]1C(=O)O
INPUT: // compare measured MIC, left A , right B , return larger Write down the label of the entry you select.
OUTPUT: A

(P) Cn1nnnc1SCC1=C(C(=O)OC(c2ccccc2)c2ccccc2)N2C(=O)[C@@H](Nc3nc4ccccc4[nH]3)C2SC1 (some centres not stated)
(Q) CC(=O)OCC1=C(C(=O)OC(C)(C)C)N2C(=O)[C@@H](Nc3nc4ccc[nH]c-4n3)C2SC1 (some centres not stated)
(R) CC1=C(C(=O)OC(c2ccccc2)c2ccccc2)N2C(=O)[C@@H](NC3=NC(c4ccc(O)c(O)c4)CN3)C2SC1 (some centres not stated)
INPUT: Order the records by MIC, with each subsequent value no larger than the one before. Note for the reader: the ranking is given by listing the labels in the order requested.
OUTPUT: Q, P, R
(Q: 256 µg/mL, P: 128 µg/mL, R: 8 µg/mL)

(A) CC1=C(C(=O)OC(c2ccccc2)c2ccccc2)N2C(=O)[C@@H](NC3=NCCN3)C2SC1 (some centres not stated)
(B) CC1=C(C(=O)OC(c2ccccc2)c2ccccc2)N2C(=O)[C@@H](NC3=NC(C)C(C)N3)C2SC1 (some centres not stated)
(C) Cn1nnnc1SCC1=C(C(=O)OC(C)(C)C)N2C(=O)[C@@H](NC3=NCCN3)C2SC1 (some centres not stated)
(D) CC(=O)OCC1=C(C(=O)OC(c2ccccc2)c2ccccc2)N2C(=O)[C@@H](Nc3nc4cc(CC#N)ccc4[nH]3)C2SC1 (some centres not stated)
INPUT: Order the records by MIC, with each subsequent value no larger than the one before. Note for the reader: the ranking is given by listing the labels in the order requested.
OUTPUT: D, B, A, C

====

// MIC lookup, one value per entry
System: Proteus mirabilis
Assay: Minimum inhibitory concentration against Proteus mirabilis A18 (inoculum, 10e5 cfu per spot)
Assay type: functional

The following molecules have reported results that may help.
[[record]]
molecule = "CC1=C(C(=O)OC(c2ccccc2)c2ccccc2)N2C(=O)[C@@H](NC3=NC(c4ccc(C#N)cc4)CN3)C2SC1 (some centres undefined)"
tested_target = "Proteus mirabilis"
value_measured = "> 256 µg/mL"

[[record]]
molecule = "CO[C@@]1(NC2=NCCN2)C(=O)N2C(C(=O)OC(c3ccccc3)c3ccccc3)=C(C)CSC21 (some centres undefined)"
tested_target = "Proteus mirabilis"
value_measured = "> 256 µg/mL"

[[record]]
molecule = "Cn1nnnc1SCC1=C(C(=O)OC(C)(C)C)N2C(=O)[C@@H](NC3=NCCN3)C2SC1 (some centres undefined)"
tested_target = "Proteus mirabilis"
value_measured = "> 256 µg/mL"


Continue with the next molecule.
INPUT: Check the records and state MIC for CC1=C(C(=O)OC(c2ccccc2)c2ccccc2)N2C(=O)[C@@H](NC3=NC(c4ccc(O)c(O)c4)CN3)C2SC1 (some centres undefined)
OUTPUT: > 256 µg/mL
